The molecules listed here are annotated with their EC50.
Target: PRMT5 (Homo sapiens, UniProt O14744)
Construct: seeded with 4000 MCF-7 cells in 30 μl media; endogenous in cells
Sequence (O14744 whole entry): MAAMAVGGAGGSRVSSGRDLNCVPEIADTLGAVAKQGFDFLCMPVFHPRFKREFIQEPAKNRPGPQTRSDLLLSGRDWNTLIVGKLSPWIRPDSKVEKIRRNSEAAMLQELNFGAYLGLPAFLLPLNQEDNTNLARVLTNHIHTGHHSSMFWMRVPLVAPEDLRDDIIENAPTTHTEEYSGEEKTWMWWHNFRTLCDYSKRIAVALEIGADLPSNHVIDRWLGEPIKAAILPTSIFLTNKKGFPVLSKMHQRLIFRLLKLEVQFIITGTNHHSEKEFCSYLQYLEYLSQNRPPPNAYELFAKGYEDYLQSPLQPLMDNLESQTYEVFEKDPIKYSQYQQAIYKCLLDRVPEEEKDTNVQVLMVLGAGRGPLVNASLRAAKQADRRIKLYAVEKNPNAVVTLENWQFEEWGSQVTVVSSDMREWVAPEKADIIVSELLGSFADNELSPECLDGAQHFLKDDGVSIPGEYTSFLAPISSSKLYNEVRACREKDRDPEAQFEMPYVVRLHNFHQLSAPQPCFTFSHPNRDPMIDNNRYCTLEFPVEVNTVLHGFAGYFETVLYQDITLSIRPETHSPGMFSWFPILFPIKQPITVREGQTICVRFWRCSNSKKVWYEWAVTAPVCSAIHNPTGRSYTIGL
Sequence (Q9BQA1 whole entry partner): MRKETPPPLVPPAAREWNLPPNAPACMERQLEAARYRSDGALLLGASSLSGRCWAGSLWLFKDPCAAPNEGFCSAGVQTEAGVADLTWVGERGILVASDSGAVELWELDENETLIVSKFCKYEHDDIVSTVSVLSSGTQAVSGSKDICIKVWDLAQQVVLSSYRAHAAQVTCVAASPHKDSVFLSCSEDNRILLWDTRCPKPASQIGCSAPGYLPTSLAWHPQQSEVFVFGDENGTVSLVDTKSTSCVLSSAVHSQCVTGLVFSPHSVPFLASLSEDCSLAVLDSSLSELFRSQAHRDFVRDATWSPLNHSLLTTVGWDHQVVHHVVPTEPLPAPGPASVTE
Assay: PRMT5 Cell Target Engagement (TE) Assay
Conditions: MCF-7 cells, treated for 3 days, symmetric dimethylation of arginine (SDMA) by high content imaging
Numbers only; they are read as nM.

Would you please look over these solved cases?
CC(C#N)c1cnc2nc(C(=O)N3CC[C@H](N4CCc5ccccc5C4)[C@@H](O)C3)cn2c1 (stereo partly shown) [Example 77] : 13
O=C(c1cn2cc(Br)cc(F)c2n1)N1CC[C@H](N2CCc3ccccc3C2)[C@@H](O)C1 [Example 141] : 21
CC1OC(=O)Nc2cc(C(=O)N3CC[C@@H](N4CCc5ccccc5C4)[C@H](O)C3)ccc21 (single isomer, unassigned) [Example 93] : 182
O=C(c1nn2cc(Br)cnc2c1Cl)N1CC[C@H](N2CCc3ccccc3C2)[C@@H](O)C1 [Example 133] : 140
CC(=O)N1CCC(Nc2cc(C(=O)N3CCC(N4CCc5ccccc5C4)C(O)C3C)ccn2)CC1 (single isomer, unassigned) [Example 21] : 1580

// next item, EC50 requested
Lab book: EC50 of CCC(=O)N1CCC(Nc2cc(C(=O)N3CC[C@H](N4CCc5ccccc5C4)[C@@H](O)C3)c(F)cn2)CC1 [Example 111] noted as 6.1

* * *

Molecular target: PRMT5-MEP50 enzyme complex (Homo sapiens)
Construct: Full-length (FL)-PRMT5-MEP50 enzyme complex (recombinant proteins from baculovirus-transfected Sf21 cells: FL-PRMT5; MW=73837 kDa and FL-MEP50; MW=38614); made in house; host or cells: baculovirus-transfected Sf21 cells
Sequence (O14744 whole entry): as the sequence (O14744 whole entry) above
Sequence (Q9BQA1 whole entry partner): as the sequence (Q9BQA1 whole entry partner) above
Test: PRMT5-MEP50 Enzyme Methylation Assay (Version A)
Assay type: biochemical
Conditions: only one EC50 shown: 4 parameters single site sigmoidal model; 60 min pre-incubation with SAM; read-out: Enzyme Methylation Assay Version A (EC50)
Recorded measurements of EC50, one per entry
Answer in nM, number only, no unit symbol.

Input O=C(c1ccc2c(c1)NCCN(C1CCOC1)C2=O)N1CC[C@H](N2CCc3ccccc3C2)[C@@H](O)C1 (stereo partly shown) . Output EC50: 3.5

In plain terms, CC1CC1c1cnc2nc(C(=O)N3CCC(N4CCc5ccccc5C4)[C@@H](O)C3)cn2c1 (single isomer, unassigned) [Example 129] has a documented EC50 of 1.4

// recorded EC50 for CN(C)C(=O)N1CCC(Nc2cc(C(=O)N3CC[C@H](N4CCc5ccccc5C4)[C@@H](O)C3)c(F)cn2)CC1 : 1.4

// EC50 lookup, compound = O=C(c1ccnc(C(F)F)c1)N1CC[C@H](N2CCc3ccccc3C2)[C@@H](O)C1 , result: 580

* * *

Target: PRMT5 (Homo sapiens, UniProt O14744)
Construct: seeded with 4000 MCF-7 cells in 30 μl media; endogenous in cells
Test: PRMT5 Cell Target Engagement (TE) Assay
Conditions: MCF-7 cells, treated for 3 days, symmetric dimethylation of arginine (SDMA) by high content imaging
EC50 strictly under 50 nM means Met; at 50 nM or over means Not met.

The examples below pair each entry with its known result.
CC1(C)CC1(C#N)c1cnc2nc(C(=O)N3CC[C@H](N4CCc5ccccc5C4)[C@@H](O)C3)cn2c1 (single isomer, unassigned) [Example 127] : Met
CC1OC(=O)Nc2cc(C(=O)N3CC[C@@H](N4CCc5ccccc5C4)[C@H](O)C3)ccc21 (single isomer, unassigned) [Example 92] : Met
O=C(c1cc(NC2CCN3C(=O)CCC3C2)ncc1F)N1CC[C@H](N2CCc3ccccc3C2)[C@@H](O)C1 (single isomer, unassigned) [Example 115] : Not met
CC1(C)Oc2ccc(C(=O)N3CC[C@H](N4CCc5ccccc5C4)[C@@H](O)C3)cc2NC1=O : Met
O=C(c1cn2cc(Br)c(C3CC3)nc2n1)N1CC[C@H](N2CCc3ccccc3C2)[C@@H](O)C1 : Met

Pending molecule:
Q. For O=C(c1ccc(-c2ncnn2C2CC2)cc1)N1CC[C@H](N2CCc3ccccc3C2)[C@@H](O)C1 , is the recorded EC50 below the cut-off of 50 nM?
A. Not met
